- target: Human HER2 expressed on tumour cells (human, UniProt P04626 23-1255)
- method.summary: cell-based or functional assay
property.label: % activity vs. DARPin # 41, BT474 cell proliferation (%)
Please reply with the bare figure in % and do not write the unit itself.

Worked examples follow.
INSERT INTO assay_data (binder, unit_string, numeric_result) VALUES
  ('DARPin #66 (designed binder) MRGSHHHHHHGSDLGAKLLSDLGVKLLWAAARGQDDEVRILLAAGADVNAKDFQGITPLHIAAQSGHLEIVEVLLKAGADVNAKDVTGDTPLHLAAQHGHLVIVEVLLKAGADVNAQDERGWTPADLAADWGHEDIAEVLQKAAGSDLGKKLLEAARAGQDDEVRILMANGADVNAKDEYGLTPLYLATAHGHLEIVEVLLKNGADVNAVDAIGFTPLHLAAFIGHLEIAEVLLKHGADVNAQDKFGKTAFDISIGNGNEDLAEILQKAA', '%', 100),
  ('DARPin #46 (designed binder) MRGSHHHHHHGSDLGKKLLEAARAGQDDEVRILMANGADVNAKDFYGITPLHLAAAYGHLEIVEVLLKHGADVNAHDWNGWTPLHLAAKYGHLEIVEVLLKHGADVNAIDNAGKTPLHLAAAHGHLEIVEVLLKYGADVNAQDKFGKTAFDISIDNGNEDLAEILQKLGGGGSGGGGSRSDLGKKLLEAARAGQDDEVRILMANGADVNATDIHGHTPLHLAAAMGHLEIVEVLLKNGADVNANDWRGFTPLHLAALNGHLEIVEVLLKNGADVNATDTAGNTPLHLAAWFGHLEIVEVLLKNGADVNAQDKFGKTAFDISIDNGNEDLAEILQKLN', '%', 100),
  ('DARPin #63 (designed binder, PEGylated at its C-terminal Cys residue) MRGSHHHHHHGSDLGAKLLSDLGVKLLWAAARGQDDEVRILLAAGADVNAKDFQGITPLHIAAQSGHLEIVEVLLKAGADVNAKDVTGDTPLHLAAQHGHLVIVEVLLKAGADVNAQDERGWTPADLAADWGHEDIAEVLQKLGGGGSGGGGSRSDLGKKLLEAARAGQDDEVRILMANGADVNAKDEYGLTPLYLATAHGHLEIVEVLLKNGADVNAVDAIGFTPLHLAAFIGHLEIAEVLLKHGADVNAQDKFGKTAFDISIGNGNEDLAEILQKAAGGGSGGGSC', '%', 100);

Attention now shifts to the item below.
[in] So what's the measured % activity vs. DARPin # 41, BT474 cell proliferation for this one? DARPin #29 (designed binder) MRGSHHHHHHGSDLGVKLLWAAARGQDDEVRILLAAGADVNAKDFQGITPLHIAATNGHLEIVEVLLKAGADVNAKDITGETPLHHAADSGHLEIVEVLLKAGADVNAQDKAGVTPADLAAAWGHEDIAEVLQKLGGGGSGGGGSRSDLGKKLLEAARAGQDDEVRILMANGADVNAKDEYGLTPLYLATAHGHLEIVEVLLKNGADVNAVDAIGFTPLHLAAFIGHLEIAEVLLKHGADVNAQDKFGKTAFDISIGNGNEDLAEILQKLN
[out] 95
